Where a SMILES comes first, the peptide text is derived from it. [ ]: non-standard residue; d: D form. Tyr(3-I) = N[C@@H](Cc1ccc(O)c(I)c1)C(=O)O; Sta = CC(C)C[C@H](N)[C@@H](O)CC(=O)O; AEEA = NCCOCCOCC(=O)O
assay_endpoint: logP
The reply should be a number, written without any unit.

compound	logP
CC(C)C[C@H](NC(=O)C[C@H](O)[C@H](CC(C)C)NC(=O)[C@H](Cc1c[nH]cn1)NC(=O)CNC(=O)[C@@H](NC(=O)[C@H](C)NC(=O)[C@H](Cc1c[nH]c2ccccc12)NC(=O)[C@H](CCC(N)=O)NC(=O)[C@@H](Cc1ccccc1)NC(=O)COCCOCCNC(=O)[C@@H](N)Cc1ccc(O)c(I)c1)C(C)C)C(N)=O [[^125I]I-Tyr-PEG2-RM26] (H-[Tyr(3-I)][AEEA][dF]QWAVGH[Sta]L-NH2)	1

# next compound below
In plain terms, CC(C)C[C@H](NC(=O)C[C@H](O)[C@H](CC(C)C)NC(=O)[C@H](Cc1c[nH]cn1)NC(=O)CNC(=O)[C@@H](NC(=O)[C@H](C)NC(=O)[C@H](Cc1c[nH]c2ccccc12)NC(=O)[C@H](CCC(N)=O)NC(=O)[C@@H](Cc1ccccc1)NC(=O)COCCOCCNC(=O)CN1CCN(CC(=O)O)CCN(CC(=O)O)CCN(CC(=O)O)CC1)C(C)C)C(N)=O [[^111In]In-DOTA-PEG2-RM26, metal not drawn, reference compound] has a documented logP of -2.6
